The reported numbers originate from the supplement of paper PMC9170038.

For each of the sequences below, state its apparent KD of MS2 coat protein.
# Tested on: MS2 coat protein
# EXPERIMENT NOTES: apparent KD of MS2 coat protein; higher = weaker reporter binding
# RUN PARAMETERS: Eterna round: R107; input ligand: arginine 13.2 mM
Field format: number, assumed nM, no unit text.

# sequence AUACAUGAGGAUCACCCAUGUCAUUCAGAAGGAGCGUCAUUAUUGACAGGUAGGUCGCUGAUAAAAUUUUUAUACAUUAUGUUUA [JR_SSArginiA_Sub014] ; its apparent KD of MS2 coat protein = 31.9

Lab note: UAACAUGAGGAUCACCCAUGUUUGGAGAAACGAGGACCGGUACGGCCGCCACUCGAGGAGUGGAUGAGAAGUGGGAUAGAGUGAU [Same State Trp A GF6] gave apparent KD of MS2 coat protein of 19.2

Lab note: GGCUAGGUCUCGGCCGCCACUGCUACAUGAGGAUCACCCAUGUACCUGGGCGGUCGCUCCCUCGGCAGGACCGGGAGACAUUCGU [Onarbeisan] gave apparent KD of MS2 coat protein of 9.2

// recorded apparent KD of MS2 coat protein for CGGUUUGUGAUGGAUACCAGCAGAGAGAAUGUUUAUCCUGACAUGAGGAUCACCCAUGUGUGCCCUUGGCAGCUGUUGUGGGCUG [8.Y] : 42.4

apparent KD of MS2 coat protein in this record for GGUGGCGUGACGGAUACCAGCCACCACCGUUAGACCACAUGAGGAUCACCCAUGUUGGGUGGCCCUUGGCAGCUGUCGUGCGGCG [#1 Same State - Theophylline B Attempt #18 (HarryS)] : 140

# apparent KD of MS2 coat protein (sequence: UACCGAUGAAGAAGGAGCGUAUGCUUAUAUGAUGGUAACAUGAGGAUCACCCAUGUCAGUAUACAGGUAGGUCGCUUCAUCGGUA [EAB NP+V+V2 #22] ) is 45.3

----------
# Tested on: MS2 coat protein
# EXPERIMENT NOTES: apparent KD of MS2 coat protein; higher = weaker reporter binding
# RUN PARAMETERS: Eterna round: R107; input ligand: theophylline 2 mM
Rule: apparent KD of MS2 coat protein of 20 nM or more gives T; anything lower gives F.

Record UUAAUGAUAUAUCAUAUGAUAUAUCCAGAAGGAGCGUCAUAAAUGGCAGGUAGGUCGCUGAAGGCAACAUGAGGAUCACCCAUGU [#16 Same State - Arginine A] ; criterion: apparent KD of MS2 coat protein no lower than 20 nM. Met? T

Confirm if apparent KD of MS2 coat protein reported for the sequence AUGCAGAGCACGGCCGCCACUCCAUGUAUACAUGAGGAUCACCCAUGUAAUUUGUAUUUUUUAUAGAGGACCGGGUGAAAUGCAA [JR_SSTryptoB_Sub011] is 20 nM or above. T

I'd appreciate it if you could say whether GGUGGCGUGACGGAUACCAGCCACCACCGUUAGACCACAUGAGGAUCACCCAUGUUGGGUGGCCCUUGGCAGCUGUCGUGCGGCG [#1 Same State - Theophylline B Attempt #18 (HarryS)] has apparent KD of MS2 coat protein at least equal to 20 nM. T

Assess whether reported apparent KD of MS2 coat protein for GGACUAACUCGAAGGAGCGACGCGCAGAAACUGCAAUUUCCUCCACACGAGGAUCACCCGUGUCAGGUAGGUCGCGAGUUAGUCG [ArgBX 29] sits at 20 nM or higher. F

Determine whether measured apparent KD of MS2 coat protein meets or exceeds 20 nM for AGAUUCGACACGGCCGCCACUCUACACGGAUUUCCGAGUGUCGAACAUGAGGAUCACCCAUGUGGGAGGACCGGGUGUUGAGUCU [XTryp B #11] T

# bool: apparent KD of MS2 coat protein of UGUAUGGACUGAAGGAGCGGGAAAAUAAGAUGAGGAUCACCCAUCUAAAAGGCGAAAGCCACCCAGGUAGGUCGCAGUCCAUACU >= 20 nM F

Say whether CACAUGAGGAUCACCCAUGUCUGAACUGAAGGAGCGCUAAAUAAGGCAGGUAGGUCGCGGAAUCCUGUGUGCAUAUGCACACGGG [9.X] shows apparent KD of MS2 coat protein of 20 nM or more. T

Would you say AAUAACAUGAGGAUCACCCAUGUAAGUAAACGAGGACCGGUACGGCCGCCACUCGAAUAAAUAAAGUACCGGUAAGAUCCAGGGA [Default title] shows apparent KD of MS2 coat protein at minimum 20 nM? F

Confirm if apparent KD of MS2 coat protein reported for the sequence UGUAUGUGAUCUGAUACCAGACGUGUAAACCUGAGGAUCACCCUGGUAAGGCGAAAGCCAGUCCCUUGGCAGCAGAUCGCAUACU is 20 nM or above. T

# bool: apparent KD of MS2 coat protein of GGAUAGGACACGGCCGCCACUAGCUAGGAUACUAGCAACAUUUCCUCACAUGAGGAUCACCCAUGUAGGACCGGGUGUCCUAUCG >= 20 nM T

Quick check, apparent KD of MS2 coat protein >= 20 nM? UAAAUAAUCUGGGUGUAGGUAAUAACAGAUACCAGCCAGAUAACUGGCCCUUGGCAGCUGAAAACAUGAGGAUCACCCAUGUAAA [Mat - Same State Theophlline A - Mod of Eli - D19] T

Does the sequence ACAUGAGGAUCACCCAUGUAUUACCGGGAAGGAGCGCGUAAGGACGCAGGUAGGUCGCUCGGCGUCUGGCCGCAAGGCUGGACGA [#1 Same State - Arginine A Attempt #18 (HarryS)] have recorded apparent KD of MS2 coat protein that is 20 nM or more? F
